inhibition: recorded values
target: Dual specificity protein phosphatase 1 (Homo sapiens)
experiment-summary: MKP-1 phosphatase inhibitors, primary screen, biochemical, in vitro (AID 374);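 note: 0% = DMSO max control wells and 100% = wells with enzyme stopped by NaOH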
study-conditions: recombinant MKP-1, OMFP hydrolysis fluorescence; stronger effect = higher value;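 compounds tested at a single concentration somewhere between 10 and 100 µM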
About 100 (0.15%) of roughly 65,000 compounds were called active. The entries come from a sample that favours actives as a whole.
experimental-endpoint: inhibition (%)

molecule	obs-value
CNC(=O)Nc1cc(C(C)(C)C)no1	-18.9
COc1ccc(F)cc1S(=O)(=O)Nc1ccc2c(c1)OCO2	12.4
COCCCn1c(CCC(=O)O)ccc1-c1ccc(F)cc1	33.1
CC(=NC1CCN(Cc2ccccc2)CC1)c1c(O)[nH]c(=O)[nH]c1=O	-4.49
N#Cc1nc(Cc2cccc3ccccc23)oc1NCc1ccc2c(c1)OCO2	-0.11
CCCN1C(=O)C(NS(=O)(=O)c2ccc(N)cc2)(C(F)(F)F)C(C(=O)OC)=C1C (stereo unspecified)	7.02

###

target: Dual specificity protein phosphatase 1 (Homo sapiens) (UniProt P28562)
Sequence (P28562 whole entry, looked up): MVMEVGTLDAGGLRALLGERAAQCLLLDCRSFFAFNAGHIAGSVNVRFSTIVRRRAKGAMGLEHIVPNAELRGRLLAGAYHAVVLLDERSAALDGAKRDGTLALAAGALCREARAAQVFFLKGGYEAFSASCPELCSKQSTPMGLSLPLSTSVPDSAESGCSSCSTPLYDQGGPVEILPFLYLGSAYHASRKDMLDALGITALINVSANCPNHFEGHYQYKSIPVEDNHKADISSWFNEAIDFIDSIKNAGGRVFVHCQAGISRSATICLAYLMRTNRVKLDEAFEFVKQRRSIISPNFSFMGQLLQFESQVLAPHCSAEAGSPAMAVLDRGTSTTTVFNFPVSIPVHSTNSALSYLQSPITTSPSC
experiment-summary: MKP-1 phosphatase inhibitors, primary screen, biochemical, in vitro (AID 374);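 note: 0% = DMSO max control wells and 100% = wells with enzyme stopped by NaOH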
study-conditions: recombinant MKP-1, OMFP hydrolysis fluorescence;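 compounds tested at a single concentration somewhere between 10 and 100 µM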
Screen size: about 65,000 compounds; about 100 (0.15%) were called active.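 Rule for the calls: active = inhibition above about 50% (limit read from the data); inconclusive = inhibition over screen mean plus 3 SD, below that limit; inactive = the rest.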 Only a selection was taken, and actives are over-represented in it overall.
Outcome codes: active, inactive

molecule	label-class
CCOC(=O)CSc1nnc(-c2ccco2)n1C	inactive
CC(C)COC(=O)c1ccc(NC(=O)C2C3C=CC(C3)C2C(=O)O)cc1 (centres undefined)	inactive
Cc1nc2nc3c(cn2n1)C(=O)CC(c1ccccc1)C3 (centres undefined)	inactive
CCn1c(Cc2ccccc2)nnc1SCc1nc2ccccc2c(=O)[nH]1	inactive
Cn1c(SCc2c(F)cccc2Cl)nnc1-c1cnccn1	inactive
COC(=O)C1=C(C)NC2=C(C(=O)c3ccccc32)C1c1ccc(-c2ccc(C(=O)O)cc2)o1 (centres undefined)	active
Cc1cccc(C)c1NC(=O)N1CC=C(n2c(=O)[nH]c3ccccc32)CC1	inactive
CCc1ccccc1NC(=O)CSc1nnc([C@@H](NC(=O)OC(C)(C)C)C(C)CC)o1 (some centres undefined)	inactive
CC1(C)CC(=O)C=C(NCCCN2CCCC2=O)C1	inactive
COc1ccc(C(=O)N(Cc2ccc(N(C)C)cc2)C2CCS(=O)(=O)C2)cc1 (centres undefined)	inactive
O=C(O)c1ccc(COCC(F)(F)F)cc1	inactive
COc1cc(Br)cc(/C=N/c2ncn[nH]2)c1O	inactive
NC(=O)CSc1oc(-c2cccs2)nc1S(=O)(=O)c1ccccc1	inactive
COc1ccc(-c2nnc(SCC(=O)c3ccco3)n2-c2ccccc2)cc1	inactive

###

target: Dual specificity protein phosphatase 1 (Homo sapiens)
experiment-summary: MKP-1 phosphatase inhibitors, primary screen, biochemical, in vitro (AID 374);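 note: 0% = DMSO max control wells and 100% = wells with enzyme stopped by NaOH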
study-conditions: recombinant MKP-1, OMFP hydrolysis fluorescence; stronger effect = higher value;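 compounds tested at a single concentration somewhere between 10 and 100 µM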
Out of some 65,000 compounds screened, about 100 (0.15%) were called active. The sample holds actives, similar compounds and a random draw of the others, so the mix is not that of the screen.
experimental-endpoint: inhibition (%)

compound	experimental-endpoint	unit-annotation	obs-value
C=C(C)Cn1c(N2CCCC2)nc2c1c(=O)[nH]c(=O)n2C	inhibition	%	4.46
CC(CCc1ccccc1)NC(=O)c1ccc(Br)o1 (stereo not drawn)	inhibition	%	9.59
O=C(NCc1ccco1)c1cc(-c2cccnc2)nc2ccc(Cl)cc12	inhibition	%	18.9
CCOC(=O)N1CCN(Cc2oc(CO)cc(=O)c2O)CC1	inhibition	%	30.4
CCOC(=O)N1CCN(C(=O)c2ccc3nc4cc(Cl)ccc4c(=O)n3c2)CC1	inhibition	%	-0.24
COc1ccccc1C1/C(=C(/O)c2ccc(C)cc2)C(=O)C(=O)N1Cc1ccco1 (stereo not drawn)	inhibition	%	22.9
O=C(Oc1cccnc1)c1cc2ccccc2oc1=O	inhibition	%	10.3
O=c1cc(CO)oc(CN2CCC(Cc3ccccc3)CC2)c1O	inhibition	%	8.32
CCO/C([O-])=N/c1c[n+](N2CCOCC2)no1	inhibition	%	-14.5
CC(C)CNC(=O)C1CCCN(S(=O)(=O)c2ccc(-n3cnnn3)cc2)C1 (stereo not drawn)	inhibition	%	10.4
CC(C)C[C@H](NC(=O)Nc1cccc(C(F)(F)F)c1)C(=O)O	inhibition	%	-11.4
COC(=O)c1ccc(NC(=O)CSc2nnc(-c3ccncc3)n2C)cc1	inhibition	%	-30.5
COCCCNC(=O)CSc1nc2ccc(N3CCOCC3)cc2c(=O)n1CCc1ccccc1	inhibition	%	25.1
Cc1nc2ccccc2cc1O	inhibition	%	-1.94
C[C@H](NC(=O)OC(C)(C)C)c1nnc(SCC(=O)Nc2ccc(Br)cc2)o1	inhibition	%	13
CCCC(=O)Nc1c(O)c2ccccc2[nH]c1=O	inhibition	%	24
COc1ccc(C(c2nnnn2Cc2cccs2)N2CCN(c3ccccc3)CC2)cc1OC (stereo not drawn)	inhibition	%	-17.2
COC(=O)[C@H](CCSC)NC(=O)Nc1ccc(OC)cc1	inhibition	%	-29.3
CCc1ccccc1N(CC(=O)NCCSCc1ccco1)S(C)(=O)=O	inhibition	%	-0.33
CCN(CC)S(=O)(=O)c1cccc(C(=O)Nc2cc(C)nn2-c2nc(C)cc(C)n2)c1	inhibition	%	-26.4
CCC1CCCCN1CCCNC(=O)Cn1nc(-c2ccccc2)ccc1=O (stereo not drawn)	inhibition	%	0.39
CCc1ccc(NC(=O)CSc2nc3ccccc3c(=O)n2CCN2CCOCC2)cc1	inhibition	%	52.5
COCCCNC(=O)CCc1nc2cccnc2n1Cc1ccc(OC)cc1	inhibition	%	2.57
